tested on: Hepatitis C virus; assay: Antiviral activity against HCV replicon assay; assay type: functional, organism-based, Hepacivirus hominis
Doc: threshold 200 µM (exclusive). Items with EC50 beneath it return Y; others return N.

Example entries and their recorded answers appear below.
molecularString: Cc1ccc(C(=O)NC2=NC(=O)/C(=C/c3ccc(-c4[nH]cnc4C)o3)S2)cc1
class: N
//
molecularString: Cc1ccc(C(=O)NC2=NC(=O)/C(=C/c3ccc(-c4nccs4)o3)S2)cc1
class: Y
//
molecularString: Cc1ccc(S(=O)(=O)NC2=NC(=O)/C(=C/c3ccc(N4CCOCC4)cc3)S2)cc1
class: Y

# evaluate next
Is it true that EC50 reported for CCc1ccc(/C=C2\SC(NS(=O)(=O)c3ccc(C(F)(F)F)cc3)=NC2=O)o1 is less than 200 µM?
Y

---

So I've got a bunch of compounds here, and I need their IC50 values.
experiment: Inhibition of HCV NS5B polymerase […]; parameters: species or system Hepacivirus hominis

Completed entries (count: 3):
molecularString: Cc1ccc(S(=O)(=O)NC2=NC(=O)/C(=C/c3ccco3)S2)cc1
IC50: 11 µM

molecularString: CCN(CC)c1ccc(/C=C2\SC(NS(=O)(=O)c3ccc(C)cc3)=NC2=O)cc1
IC50: > 100 µM

molecularString: CCCCN(C1=NC(=O)/C(=C/c2ccc(CC)o2)S1)S(=O)(=O)c1ccc(C)cc1
IC50: > 100 µM

Give IC50 for each listed item.
1. Cc1ccc(C(=O)NC2=NC(=O)/C(=C/c3ccc(-c4ccc(-c5csnn5)cc4)o3)S2)cc1
2. CCc1ccc(/C=C2\SC(NS(=O)(=O)c3ccccc3N)=NC2=O)o1

1. 11 µM
2. 11 µM

---

system: Hepatitis C virus; test: Antiviral activity against HCV replicon assay; assay type: functional, organism-based, Hepacivirus hominis
metricName: pEC50
Answers are plain numbers, as −log10 of the molar value.

Answered examples (5):
molecule: Cc1ccc(S(=O)(=O)NC2=NC(=O)C(Cc3ccc(Br)o3)S2)cc1 (stereo not given)
metricName: pEC50
endpointResult: 4.19
--
molecule: CCCCCN(C1=NC(=O)/C(=C/c2ccc(CC)o2)S1)S(=O)(=O)c1ccc(C)cc1
metricName: pEC50
endpointResult: 4.26
--
molecule: Cc1ccc(S(=O)(=O)NC2=NC(=O)/C(=C/c3ccc([N+](=O)[O-])s3)S2)cc1
metricName: pEC50
endpointResult: 5.15
--
molecule: Cc1ccc(S(=O)(=O)NC2=NC(=O)/C(=C/C=C/c3ccco3)S2)cc1
metricName: pEC50
endpointResult: 4.26
--
molecule: CCCCCCN(C1=NC(=O)/C(=C/c2ccc(CC)o2)S1)S(=O)(=O)c1ccc(C)cc1
metricName: pEC50
endpointResult: 4.15

Below are 3 molecules. Give each one its pEC50.
1. Cc1ccc(S(=O)(=O)NC2=NC(=O)C(Cc3ccco3)S2)cc1 (stereo not given)
2. Cc1ccc(S(=O)(=O)NC2=NC(=O)/C(=C/c3ccc(-c4csnn4)cc3)S2)cc1
3. Cc1ccc(S(=O)(=O)NC2=NC(=O)/C(=C/c3ccc(N4CCCC4)cc3)S2)cc1

3.70
4.70
4.60

For the 8 molecules below, give their pEC50 values.
1. Cc1ccc(C(=O)NC2=NC(=O)/C(=C/c3cccs3)S2)cc1
2. CCc1ccc(/C=C2\SC(NS(=O)(=O)c3ccc(C)cc3)=NC2=O)o1
3. Cc1ccc(S(=O)(=O)NC2=NC(=O)/C(=C/c3ccc(-c4nc(C(C)(C)C)cs4)cc3)S2)cc1
4. Cc1ccc(S(=O)(=O)NC2=NC(=O)/C(=C/c3cc(C)c(C)o3)S2)cc1
5. Cc1ccc(S(=O)(=O)NC2=NC(=O)/C(=C/c3ccc(-n4cncn4)cc3)S2)cc1
6. Cc1ccc(S(=O)(=O)NC2=NC(=O)/C(=C/c3ccc(-n4ccnc4)cc3)S2)cc1
7. Cc1ccc(S(=O)(=O)NC2=NC(=O)/C(=C/c3ccc(C)s3)S2)cc1
8. Cc1ccc(S(=O)(=O)NC2=NC(=O)/C(=C/c3cccs3)S2)cc1

[4.00, 4.60, 5.05, 3.70, 4.00, 4.22, 4.15, 4.10]

Each molecule below has a recorded value; state its pEC50.
1. CCCCCCCN(C1=NC(=O)/C(=C/c2ccc(CC)o2)S1)S(=O)(=O)c1ccc(C)cc1
2. Cc1ccc(S(=O)(=O)NC2=NC(=O)/C(=C/c3ccc(-c4ccccc4)o3)S2)cc1

[4.05, 4.26]

Provide pEC50 values for the following items, in order.
1. Cc1ccc(S(=O)(=O)NC2=NC(=O)/C(=C/c3ccc(-n4cccn4)cc3)S2)cc1
2. Cc1ccc(S(=O)(=O)NC2=NC(=O)/C(=C/c3ccc(I)o3)S2)cc1

4.15
4.42

# credit: ChEMBL document CHEMBL1138368
